Experiment: Steady-state electronic absorption and fluorescence spectroscopy
Type: physicochemical
Conditions: fluorescence quantum yield
Kind request: treat 0.08 as inclusive, so φF at 0.08 or higher is 1, anything lower is -1.

# molecule, assignedLabel
records = [
    ("CCCCCCCCN1C(=O)c2cc(CCc3ccccc3)c3c4c(c(CCc5ccccc5)cc(c24)C1=O)C(=O)N(CCCCCCCC)C3=O [Compound 4]", -1),
    ("CCCCCCCCN1C(=O)c2c(CCc3ccccc3)cc3c4cc(CCc5ccccc5)c5c6c(c(CCc7ccccc7)cc(c7cc(CCc8ccccc8)c(c2c37)C1=O)c64)C(=O)N(CCCCCCCC)C5=O [Compound 8]", 1),
    ("CCCCC(CC)CN1C(=O)c2c(CCc3ccccc3)cc3c4cccc5cccc(c6cc(CCc7ccccc7)c(c2c36)C1=O)c54 (centres unmarked) [Compound 6]", 1),
    ("CCCCC(CC)CN1C(=O)c2c(CCc3ccccc3)cc3c4ccc5c6cc(CCc7ccccc7)c7c8c(c(CCc9ccccc9)cc(c9ccc(c%10cc(CCc%11ccccc%11)c(c2c3%10)C1=O)c4c59)c86)C(=O)N(CC(CC)CCCC)C7=O (centres unmarked) [Compound 10]", 1),
]
